The reported numbers originate from paper PMC7816042.

Reported Maximum response (fold increase) values for the following molecules.
Target: human P2X7 (Homo sapiens, UniProt Q99572)
Construct: expressed in transfected cells
Sequence (Q99572 1-595): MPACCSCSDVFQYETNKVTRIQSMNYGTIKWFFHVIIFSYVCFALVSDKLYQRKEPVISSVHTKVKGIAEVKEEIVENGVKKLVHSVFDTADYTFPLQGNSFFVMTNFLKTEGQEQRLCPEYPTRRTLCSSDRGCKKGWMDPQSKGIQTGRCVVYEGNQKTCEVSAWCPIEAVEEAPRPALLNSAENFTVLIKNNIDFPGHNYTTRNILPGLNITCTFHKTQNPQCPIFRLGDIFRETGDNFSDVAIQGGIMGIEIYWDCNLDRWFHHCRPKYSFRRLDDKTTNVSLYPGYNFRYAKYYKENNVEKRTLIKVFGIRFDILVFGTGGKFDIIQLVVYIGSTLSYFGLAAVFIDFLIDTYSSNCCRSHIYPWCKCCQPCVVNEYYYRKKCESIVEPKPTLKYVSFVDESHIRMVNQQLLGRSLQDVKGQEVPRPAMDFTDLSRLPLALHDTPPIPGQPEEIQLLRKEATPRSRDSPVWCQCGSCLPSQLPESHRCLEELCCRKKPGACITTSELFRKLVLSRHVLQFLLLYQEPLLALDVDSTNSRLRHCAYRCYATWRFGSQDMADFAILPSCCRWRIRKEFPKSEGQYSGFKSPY
Assay: YO-PRO-1 dye uptake assay in HEK-hP2X7 cells
Type: cell-based
Settings: maximum response defined at 1 mM ATP; 10 µM glycoside
Write down the numeric answer in fold and omit the unit.

Here is how some molecules turned out for Maximum response (fold increase).
molecule	Maximum response (fold increase) [fold]
CC(C)=CCC[C@@](C)(O)[C@H]1CC[C@]2(C)[C@@H]1[C@H](O)C[C@@H]1[C@@]3(C)CC[C@H](O[C@@H]4O[C@H](CO)[C@@H](O)[C@H](O)[C@H]4O[C@@H]4O[C@H](CO)[C@@H](O)[C@H](O)[C@H]4O)C(C)(C)[C@@H]3CC[C@]12C [Ginsenoside-20(R)-Rg3, 20(R)-ginsenoside-Rg3]	0.94
CC(C)=CCC[C@](C)(O)[C@H]1CC[C@]2(C)[C@@H]1[C@H](O)C[C@@H]1[C@@]3(C)CC[C@H](O[C@@H]4O[C@H](CO)[C@@H](O)[C@H](O)[C@H]4O[C@@H]4O[C@H](CO)[C@@H](O)[C@H](O)[C@H]4O)C(C)(C)[C@@H]3CC[C@]12C [Ginsenoside-20(S)-Rg3, 20(S)-ginsenoside-Rg3]	2.4
CC(=O)O[C@@H]1C[C@]2(O)[C@H](CC[C@]3(C)[C@@H](c4ccc(=O)oc4)CC[C@@]32O)[C@@]2(C)CC[C@H](O[C@@H]3O[C@H](CO)[C@@H](O)[C@H](O)[C@H]3O)C=C12 [Scilliroside]	1.07
CC(C)=CCC[C@](C)(O)[C@H]1CC[C@]2(C)[C@@H]1[C@H](O)C[C@@H]1[C@@]3(C)CC[C@H](O[C@@H]4O[C@H](CO)[C@@H](O)[C@H](O)[C@H]4O)C(C)(C)[C@@H]3CC[C@]12C [Ginsenoside-20(S)-Rh2, 20(S)-ginsenoside-Rh2]	2.6

Tell me the measured Maximum response (fold increase) of C[C@@H]1O[C@@H](O[C@H]2C[C@@H](O)[C@]3(CO)[C@H]4[C@H](O)C[C@]5(C)[C@@H](C6=CC(=O)OC6)CC[C@]5(O)[C@@H]4CC[C@]3(O)C2)[C@H](O)[C@H](O)[C@H]1O [Ouabain, ouabain, reference compound] , please.
1.08

Tell me the measured Maximum response (fold increase) of CC(C)=CCC[C@@](O)(CO[C@@H]1O[C@H](CO)[C@@H](O)[C@H](O)[C@H]1O)[C@H]1CC[C@]2(C)[C@@H]1CC[C@@H]1[C@@]3(C=O)CC[C@H](O[C@@H]4OC[C@H](O)[C@H](O[C@@H]5OC[C@@H](O)[C@H](O)[C@H]5O)[C@H]4O[C@@H]4O[C@@H](C)[C@H](O)[C@@H](O)[C@H]4O)C(C)(C)[C@@H]3CC[C@]12C [Gypenoside XLIX, gypenoside XLIX] , please.
1.9

Tell me the measured Maximum response (fold increase) of CC(C)=CCC[C@@](C)(O)[C@H]1CC[C@]2(C)[C@@H]1[C@H](O)C[C@@H]1[C@@]3(C)CC[C@H](O[C@@H]4O[C@H](CO)[C@@H](O)[C@H](O)[C@H]4O)C(C)(C)[C@@H]3CC[C@]12C [Ginsenoside-20(R)-Rh2, 20(R)-ginsenoside-Rh2] , please.
1.53

###

Target: endogenous P2X7 in THP-1 cells (Homo sapiens, UniProt Q99572)
Experiment: Fura-2 calcium measurements in THP-1 monocytes
Assay type: cell-based
Conditions: 500 µM ATP co-applied with 10 µM glycoside
Experimental: THP-1 cells were pelleted by centrifugation (300g, 5 minute), washed, and resuspended in Hanks’ balanced salt solution buffer containing 2 μM fura-2 AM (HelloBio) and 250 μM (±)-sulfinpyrazone. […] THP-1 cells were then resuspended, counted, and plated at 2 × 10^5 cells per well in a standard clear 96-well plate (NUNC 167008; Thermo Scientific) in low divalent assay buffer without Mg^2+ (145 mM NaCl, 2 mM KCl and 2 mM CaCl2, 13 mM glucose, 10 mM HEPES, pH 7.3) containing 250 μM (±)-sulfinpyrazone. […]

molecule	Effect on ATP-induced calcium response
CC(C)=CCC[C@](C)(O)[C@H]1CC[C@]2(C)[C@@H]1[C@H](O)C[C@@H]1[C@@]3(C)CC[C@H](O[C@@H]4O[C@H](CO)[C@@H](O)[C@H](O)[C@H]4O[C@@H]4O[C@H](CO)[C@@H](O)[C@H](O)[C@H]4O)C(C)(C)[C@@H]3CC[C@]12C [Ginsenoside-20(S)-Rg3, 20(S)-ginsenoside-Rg3]	potentiated
CC(C)=CCC[C@](C)(O[C@@H]1O[C@H](CO)[C@@H](O)[C@H](O)[C@H]1O)[C@H]1CC[C@]2(C)[C@@H]1[C@H](O)C[C@@H]1[C@@]3(C)CC[C@H](O[C@@H]4O[C@H](CO)[C@@H](O)[C@H](O)[C@H]4O)C(C)(C)[C@@H]3CC[C@]12C [Ginsenoside-F2, ginsenoside-F2]	potentiated
CC(C)=CCC[C@](C)(O[C@@H]1O[C@H](CO)[C@@H](O)[C@H](O)[C@H]1O)[C@H]1CC[C@]2(C)[C@@H]1[C@H](O)C[C@@H]1[C@@]3(C)CC[C@H](O[C@@H]4O[C@H](CO)[C@@H](O)[C@H](O)[C@H]4O[C@@H]4O[C@H](CO)[C@@H](O)[C@H](O)[C@H]4O)C(C)(C)[C@@H]3CC[C@]12C [Ginsenoside-Rd, ginsenoside-Rd]	potentiated

###

Molecular target: human P2X7 (Homo sapiens)
Construct: expressed in transfected cells
Assay: YO-PRO-1 dye uptake assay in HEK-hP2X7 cells
Format: cell-based
Conditions: average EC50 for ATP + vehicle of each set of experiments used; 10 µM glycoside
Labelling field: enter criterion met if recorded EC50 ratio is less than 1. Enter criterion not met if it equals or exceeds that cut-off.

Solved cases (2 shown):
compound	label.value
CC(C)=CCC[C@](C)(O[C@@H]1O[C@H](CO)[C@@H](O)[C@H](O)[C@H]1O)[C@H]1CC[C@]2(C)[C@@H]1[C@H](O)C[C@@H]1[C@@]3(C)CC[C@H](O)C(C)(C)[C@@H]3[C@@H](O)C[C@]12C [Ginsenoside-F1, ginsenoside-F1]	criterion not met
CC(C)=CCC[C@](C)(O[C@@H]1O[C@H](CO)[C@@H](O)[C@H](O)[C@H]1O)[C@H]1CC[C@]2(C)[C@@H]1[C@H](O)C[C@@H]1[C@@]3(C)CC[C@H](O[C@@H]4O[C@H](CO)[C@@H](O)[C@H](O)[C@H]4O[C@@H]4O[C@H](CO)[C@@H](O)[C@H](O)[C@H]4O)C(C)(C)[C@@H]3CC[C@]12C [Ginsenoside-Rd, ginsenoside-Rd]	criterion not met

Please determine if `CC[C@H](CC[C@@H](C)[C@H]1CC[C@H]2[C@@H]3CC=C4C[C@@H](O[C@@H]5O[C@H](CO)[C@@H](O)[C@H](O)[C@H]5O)CC[C@]4(C)[C@H]3CC[C@]12C)C(C)C` is below 1 in terms of EC50 ratio.
criterion met

Please determine if CC(C)=CCC[C@](C)(O[C@@H]1O[C@H](CO[C@@H]2O[C@H](CO)[C@@H](O)[C@H](O)[C@H]2O)[C@@H](O)[C@H](O)[C@H]1O)[C@H]1CC[C@]2(C)[C@@H]1[C@H](O)C[C@@H]1[C@@]3(C)CC[C@H](O[C@@H]4O[C@H](CO)[C@@H](O)[C@H](O)[C@H]4O[C@@H]4O[C@H](CO)[C@@H](O)[C@H](O)[C@H]4O)C(C)(C)[C@@H]3CC[C@]12C [Ginsenoside-Rb1, ginsenoside-Rb1] is below 1 in terms of EC50 ratio.
criterion not met

Please determine if COC(=O)[C@@]1(C)CC[C@]2(C(=O)O)CC[C@]3(C)C(=CC[C@@H]4[C@@]5(C)C[C@H](O)[C@H](O[C@@H]6OC[C@@H](O[C@@H]7O[C@H](CO)[C@@H](O)[C@H](O)[C@H]7O)[C@H](O)[C@H]6O)[C@@](C)(CO)[C@@H]5CC[C@]43C)[C@@H]2C1 [Esculentoside A, esculentoside A] is below 1 in terms of EC50 ratio.
criterion met

Please determine if C[C@@H]1O[C@@H](O[C@H]2C[C@@H](O)[C@]3(CO)[C@H]4[C@H](O)C[C@]5(C)[C@@H](C6=CC(=O)OC6)CC[C@]5(O)[C@@H]4CC[C@]3(O)C2)[C@H](O)[C@H](O)[C@H]1O [Ouabain, ouabain, reference compound] is below 1 in terms of EC50 ratio.
criterion not met

Please determine if CC(=O)O[C@@H]1C[C@]2(O)[C@H](CC[C@]3(C)[C@@H](c4ccc(=O)oc4)CC[C@@]32O)[C@@]2(C)CC[C@H](O[C@@H]3O[C@H](CO)[C@@H](O)[C@H](O)[C@H]3O)C=C12 [Scilliroside] is below 1 in terms of EC50 ratio.
criterion not met

Please determine if CC(C)=CCC[C@@](O)(CO[C@@H]1O[C@H](CO)[C@@H](O)[C@H](O)[C@H]1O)[C@H]1CC[C@]2(C)[C@@H]1CC[C@@H]1[C@@]3(C=O)CC[C@H](O[C@@H]4OC[C@H](O)[C@H](O[C@@H]5OC[C@@H](O)[C@H](O)[C@H]5O)[C@H]4O[C@@H]4O[C@@H](C)[C@H](O)[C@@H](O)[C@H]4O)C(C)(C)[C@@H]3CC[C@]12C [Gypenoside XLIX, gypenoside XLIX] is below 1 in terms of EC50 ratio.
criterion met
